Provenance of the data: patent US9688710B2

What IC50 was measured for each of the following?
# Assayed system: Human sodium/glucose co-transporter type 2 (SGLT2) (Homo sapiens (Human), UniProt P31639)
# Sequence (P31639 whole entry): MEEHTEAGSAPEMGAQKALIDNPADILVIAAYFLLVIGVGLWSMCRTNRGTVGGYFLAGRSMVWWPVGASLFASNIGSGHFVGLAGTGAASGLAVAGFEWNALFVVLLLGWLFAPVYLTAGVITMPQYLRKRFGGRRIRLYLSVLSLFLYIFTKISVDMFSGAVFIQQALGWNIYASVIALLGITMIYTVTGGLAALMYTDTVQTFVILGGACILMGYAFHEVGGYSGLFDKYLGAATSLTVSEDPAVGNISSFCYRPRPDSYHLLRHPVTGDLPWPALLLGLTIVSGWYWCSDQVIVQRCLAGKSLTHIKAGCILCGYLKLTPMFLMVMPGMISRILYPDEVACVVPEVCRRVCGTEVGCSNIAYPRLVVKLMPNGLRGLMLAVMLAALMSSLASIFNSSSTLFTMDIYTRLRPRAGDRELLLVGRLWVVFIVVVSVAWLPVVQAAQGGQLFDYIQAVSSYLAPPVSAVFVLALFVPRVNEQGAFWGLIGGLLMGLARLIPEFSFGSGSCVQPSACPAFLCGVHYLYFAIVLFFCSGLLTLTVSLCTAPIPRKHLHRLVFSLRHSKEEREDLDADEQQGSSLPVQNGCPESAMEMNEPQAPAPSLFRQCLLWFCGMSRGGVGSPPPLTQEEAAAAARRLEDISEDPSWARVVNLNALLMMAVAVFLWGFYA
# Procedure details: In vitro human SGLT2 inhibition assay (14C-AMG uptake)
# Measurement context: HEK293 cells expressing human HA-SGLT2, 14C-AMG uptake

INSERT INTO assay_data (structure_smiles, result) VALUES
  ('CS[C@H]1O[C@@H](c2ccc(C)c(Cc3ccc(CCCC(=O)NC(C)(C)CO)cc3)c2)[C@H](O)[C@@H](O)[C@@H]1O', '< 10 nM');

Give IC50 for each of the items listed below.
1. CS[C@H]1O[C@@H](c2ccc(C)c(Cc3ccc(CCCC(=O)NC4(C(=O)N5CCN(C)CC5)CC4)cc3)c2)[C@H](O)[C@@H](O)[C@@H]1O
2. CS[C@H]1O[C@@H](c2ccc(C)c(Cc3ccc(OCCCC(=O)O)cc3)c2)[C@H](O)[C@@H](O)[C@@H]1O
3. CS[C@H]1O[C@@H](c2ccc(Cl)c(Cc3ccc(OCCCC(=O)N[C@@H](CO)C(N)=O)cc3)c2)[C@H](O)[C@@H](O)[C@@H]1O
4. CS[C@H]1O[C@@H](c2ccc(Cl)c(Cc3ccc(OCC[C@H](N)C(=O)O)cc3)c2)[C@H](O)[C@@H](O)[C@@H]1O
5. CS[C@H]1O[C@@H](c2ccc(C)c(Cc3ccc(CCCC(=O)NCC(C)(C)C(=O)N4CCN(C)CC4)cc3)c2)[C@H](O)[C@@H](O)[C@@H]1O

OUTPUT:
["< 10 nM", "< 100 nM", "< 10 nM", "< 100 nM", "< 10 nM"]

INPUT: May I ask what IC50 has been recorded for CS[C@H]1O[C@@H](c2ccc(C)c(Cc3ccc(CCCC(=O)NCC(C)(C)C(=O)N(C)CCN(C)C)cc3)c2)[C@H](O)[C@@H](O)[C@@H]1O ?
OUTPUT: < 100 nM

###

What pIC50 was measured for each of the following?
# Assayed system: Human sodium/glucose co-transporter type 1 (SGLT1) (Homo sapiens (Human), UniProt P13866)
# Sequence (P13866 whole entry): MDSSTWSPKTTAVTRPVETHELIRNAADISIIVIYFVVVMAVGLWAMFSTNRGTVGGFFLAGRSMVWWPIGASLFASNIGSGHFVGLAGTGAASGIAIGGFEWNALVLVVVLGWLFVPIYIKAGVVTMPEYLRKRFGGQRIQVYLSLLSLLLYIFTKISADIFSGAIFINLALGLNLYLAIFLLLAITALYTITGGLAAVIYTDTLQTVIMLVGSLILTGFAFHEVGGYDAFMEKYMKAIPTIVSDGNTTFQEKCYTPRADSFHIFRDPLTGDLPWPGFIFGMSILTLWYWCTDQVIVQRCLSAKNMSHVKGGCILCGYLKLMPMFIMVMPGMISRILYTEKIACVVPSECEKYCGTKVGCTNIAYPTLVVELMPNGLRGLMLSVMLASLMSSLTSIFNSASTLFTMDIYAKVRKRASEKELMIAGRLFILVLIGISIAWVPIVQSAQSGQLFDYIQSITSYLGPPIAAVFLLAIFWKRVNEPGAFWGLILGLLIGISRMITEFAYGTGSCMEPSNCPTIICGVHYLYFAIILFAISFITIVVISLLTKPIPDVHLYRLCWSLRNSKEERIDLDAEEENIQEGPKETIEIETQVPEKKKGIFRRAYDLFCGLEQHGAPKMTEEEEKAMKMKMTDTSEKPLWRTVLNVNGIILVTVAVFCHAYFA
# Procedure details: In vitro human SGLT1 inhibition assay (14C-AMG uptake)
# Measurement context: HEK293 cells expressing human HA-SGLT1, 14C-AMG uptake
# Procedure: Human sodium/glucose co-transporter type 1 (SGLT1; accession number NP_000334; GI: 4507031) was cloned into pIRESpuro2 vector for mammalian expression (construct: HA-SGLT1-pIRESpuro2). HEK293 cells were transfected with the human HA-SGLT1-pIRESpuro2 vector and the bulk stable cell line was selected in presence of 0.5 μg/mL of puromycin. Human HA-SGLT1 cells were maintained in DMEM media containing 10% FBS, 1% GPS and 0.5 μg/mL of puromycin. […]
pIC50: −log10 of the molar value.

Example entries begin here.
INSERT INTO assay_data (compound, result) VALUES
  ('CS[C@H]1O[C@@H](c2ccc(C)c(Cc3ccc(CCCc4nnnn4CC(=O)N4CCN(C)CC4)cc3)c2)[C@H](O)[C@@H](O)[C@@H]1O', '> 8.00'),
  ('CS[C@H]1O[C@@H](c2ccc(C)c(Cc3ccc(OCCCC(=O)N[C@@H](CC(N)=O)C(N)=O)cc3)c2)[C@H](O)[C@@H](O)[C@@H]1O', '> 7.00'),
  ('CS[C@H]1O[C@@H](c2ccc(C)c(Cc3ccc(OCCNC(C)(C)CO)cc3)c2)[C@H](O)[C@@H](O)[C@@H]1O', '> 8.00');

Give pIC50 for each of the items listed below.
1. CS[C@H]1O[C@@H](c2ccc(C)c(Cc3ccc(/C=C/CCC(=O)NC(C)(C)C(=O)N4CCN(C)CC4)cc3)c2)[C@H](O)[C@@H](O)[C@@H]1O
2. CS[C@H]1O[C@@H](c2ccc(Cl)c(Cc3ccc(OCCCC(=O)N(C)C(C)(C)CO)cc3)c2)[C@H](O)[C@@H](O)[C@@H]1O

OUTPUT:
1. > 8.00
2. > 7.00

Give pIC50 for each of the items listed below.
1. CS[C@H]1OC(c2ccc(C)c(Cc3ccc(OCCCNC(CO)CO)cc3)c2)[C@H](O)[C@@H](O)[C@@H]1O (stereo partly shown)
2. CS[C@H]1O[C@@H](c2ccc(C)c(Cc3ccc(Cl)cc3)c2)[C@H](O)[C@@H](O)[C@@H]1O

OUTPUT:
["> 8.00", "> 7.00"]

###

What IC50 was measured for each of the following?
# Assayed system: Human sodium/glucose co-transporter type 1 (SGLT1) (Homo sapiens (Human))
# Procedure details: In vitro human SGLT1 inhibition assay (14C-AMG uptake)
# Type: cell-based
# Measurement context: HEK293 cells expressing human HA-SGLT1, 14C-AMG uptake

Example entries begin here.
INSERT INTO assay_data (compound, result) VALUES
  ('CS[C@H]1O[C@@H](c2ccc(C)c(Cc3ccc(OCC(=O)NC(C)(C)C(N)=O)cc3)c2)[C@H](O)[C@@H](O)[C@@H]1O', '< 100 nM'),
  ('CS[C@H]1O[C@@H](c2ccc(C)c(Cc3ccc(CCCCNC(=O)N4CCN(C)CC4)cc3)c2)[C@H](O)[C@@H](O)[C@@H]1O', '< 100 nM'),
  ('CS[C@H]1O[C@@H](c2ccc(C)c(Cc3ccc(CCCC(=O)NCCCC[C@H](N)C(=O)O)cc3)c2)[C@H](O)[C@@H](O)[C@@H]1O', '< 10 nM');

Give IC50 for each of the items listed below.
1. CS[C@H]1O[C@@H](c2ccc(C)c(Cc3ccc(CCCC(=O)NC(CO)(CO)CO)cc3)c2)[C@H](O)[C@@H](O)[C@@H]1O
2. CS[C@H]1O[C@@H](c2ccc(C)c(Cc3ccc(CCCC(=O)NCC(C)(C)C(=O)N4CCN(C)CC4)cc3)c2)[C@H](O)[C@@H](O)[C@@H]1O
3. CSC1OC(c2ccc(C)c(Cc3ccc(CCCC(=O)N4CCN(CCCN5CCN(C(=O)CCCc6ccc(Cc7cc(C8OC(SC)C(O)C(O)C8O)ccc7C)cc6)CC5)CC4)cc3)c2)C(O)C(O)C1O (centres unmarked)
4. CS[C@H]1O[C@@H](c2ccc(C)c(Cc3ccc(OCCCC(=O)NC(C)(C)C(=O)N4CCOCC4)cc3)c2)[C@H](O)[C@@H](O)[C@@H]1O
5. CNC(=O)C(C)(C)NC(=O)CCCc1ccc(Cc2cc([C@@H]3O[C@H](SC)[C@@H](O)[C@H](O)[C@H]3O)ccc2C)cc1
6. CS[C@H]1O[C@@H](c2ccc(C)c(Cc3ccc(CCCC(=O)O)cc3)c2)[C@H](O)[C@@H](O)[C@@H]1O
7. CS[C@H]1O[C@@H](c2ccc(C)c(Cc3ccc(OCCCC(=O)NC(C)(C)C(=O)NC4CCN(C)CC4)cc3)c2)[C@H](O)[C@@H](O)[C@@H]1O

OUTPUT:
1. < 10 nM
2. < 10 nM
3. < 10 nM
4. < 10 nM
5. < 10 nM
6. < 100 nM
7. < 10 nM

INPUT: May I ask what IC50 has been recorded for CS[C@H]1O[C@@H](c2ccc(Cl)c(Cc3ccc(OCCCC(=O)O)cc3)c2)[C@H](O)[C@@H](O)[C@@H]1O ?
OUTPUT: < 1000 nM

###

What pIC50 was measured for each of the following?
# Assayed system: Human sodium/glucose co-transporter type 1 (SGLT1) (Homo sapiens (Human), UniProt P13866)
# Procedure details: In vitro human SGLT1 inhibition assay (14C-AMG uptake)
# Measurement context: HEK293 cells expressing human HA-SGLT1, 14C-AMG uptake
pIC50: −log10 of the molar value.

Example entries begin here.
INSERT INTO measurements (compound, result) VALUES
  ('CCN(CC)C(=O)CCCOc1ccc(Cc2cc([C@@H]3O[C@H](SC)[C@@H](O)[C@H](O)[C@H]3O)ccc2Cl)cc1', '> 7.00'),
  ('CS[C@H]1O[C@@H](c2ccc(Cl)c(Cc3ccc(OCCCC[C@H](N)C(=O)O)cc3)c2)[C@H](O)[C@@H](O)[C@@H]1O', '> 7.00'),
  ('CS[C@H]1O[C@@H](c2ccc(Cl)c(Cc3ccc(OCCCC(=O)N(C)C(C)(C)C(N)=O)cc3)c2)[C@H](O)[C@@H](O)[C@@H]1O', '> 8.00'),
  ('CS[C@H]1O[C@@H](c2ccc(C)c(Cc3ccc(CCCCC(=O)NC(C)(C)C(=O)N4CCN(C)CC4)cc3)c2)[C@H](O)[C@@H](O)[C@@H]1O', '> 8.00');

Give pIC50 for each of the items listed below.
1. CS[C@H]1O[C@@H](c2ccc(C)c(Cc3ccc(CCCCNC(=O)C(C)(C)CO)cc3)c2)[C@H](O)[C@@H](O)[C@@H]1O
2. CS[C@H]1O[C@@H](c2ccc(C)c(Cc3ccc(CCCCC(=O)NC(C)(C)C(N)=O)cc3)c2)[C@H](O)[C@@H](O)[C@@H]1O
3. CS[C@H]1O[C@@H](c2ccc(Cl)c(Cc3ccc(OCCCC(=O)N(CCO)CCO)cc3)c2)[C@H](O)[C@@H](O)[C@@H]1O

OUTPUT:
1. > 8.00
2. > 8.00
3. > 7.00
